Measured log10 of IC50 of individual entries
TESTED_ON: GPR73 (prokineticin 1 receptor) (Homo sapiens, UniProt Q8TCW9)
Sequence (Q8TCW9 whole entry, species assumed): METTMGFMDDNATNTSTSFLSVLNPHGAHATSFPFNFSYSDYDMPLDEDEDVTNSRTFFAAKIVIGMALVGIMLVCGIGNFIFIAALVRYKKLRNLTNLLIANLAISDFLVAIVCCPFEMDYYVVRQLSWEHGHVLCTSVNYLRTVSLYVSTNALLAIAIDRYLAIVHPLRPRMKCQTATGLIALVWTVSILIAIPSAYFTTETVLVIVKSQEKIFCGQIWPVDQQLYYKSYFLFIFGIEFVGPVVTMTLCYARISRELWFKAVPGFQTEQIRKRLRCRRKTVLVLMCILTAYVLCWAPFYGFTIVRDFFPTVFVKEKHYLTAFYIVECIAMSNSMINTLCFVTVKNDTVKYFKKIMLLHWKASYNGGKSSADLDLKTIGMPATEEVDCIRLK
EXPERIMENT_NOTES: PK1 functional assay: Ca2+ mobilization screening for PK1 antagonists on the FLIPR
PROTOCOL_CONDITIONS: HEK 293 GPR73 cells; PK1 ligand preparation at its EC50; multiple values = multiple testing; read-out: Ca^2+ Mobilization IC50
# log10 transformed; quantity=IC50; unit=µM

> print(dat)
                              record.smiles  assay.result
1  Cc1cc(C)c(CNc2nc(=O)n(Cc3ccc(-c4csnn4)cc3)c(=O)n2Cc2ccc(OC(F)F)cc2)cn1          0.18
2  COc1ccc(Cn2c(NCc3cnc(C)cc3C)nc(=O)n(Cc3ccc4c(c3)nnn4C)c2=O)cc1          0.03
3  COc1ccc(Cn2c(NCc3cnc(C)cc3C)nc(=O)n(Cc3ccc(F)cc3)c2=O)cc1         -0.46

Prompt: Fill in the blank: the reported log10 of IC50 of COc1ccc(Cn2c(=O)nc(NCc3cccnc3N)n(Cc3ccncc3)c2=O)cc1 is ____.
Completion: 0.16

Prompt: Fill in the blank: the reported log10 of IC50 of COc1ccc(Cn2c(=O)nc(NCc3cccnc3N)n(Cc3cccc(OC)c3)c2=O)cc1 is ____.
Completion: 0.31

Prompt: Fill in the blank: the reported log10 of IC50 of COc1ccc(Cn2c(NCc3cccnc3N3CCOCC3)nc(=O)n(Cc3ccc(OC)cc3)c2=O)cc1 is ____.
Completion: -0.75

Prompt: Fill in the blank: the reported log10 of IC50 of COc1ccc(Cn2c(NCc3cccnc3N3CCCCC3)nc(=O)n(Cc3ccc(OC)cc3)c2=O)cc1 is ____.
Completion: -0.26

Prompt: Fill in the blank: the reported log10 of IC50 of COc1ccc(Cn2c(NCc3cccnc3N3CCCC3)nc(=O)n(Cc3ccc(F)cc3)c2=O)cc1 is ____.
Completion: 0.83

Prompt: Fill in the blank: the reported log10 of IC50 of COc1ccc(Cn2c(NCc3cccnc3N)nc(=O)n(Cc3ccc([N+](=O)[O-])cc3)c2=O)cc1 is ____.
Completion: -0.08

Prompt: Fill in the blank: the reported log10 of IC50 of COc1ccc(Cn2c(=O)nc(NCc3cnc(C)cc3C)n(Cc3cc4ccccc4o3)c2=O)cc1 is ____.
Completion: -0.96
